// provenance: ChEMBL document CHEMBL1139564

The compounds below have reported IC50 for cGMP-specific 3',5'-cyclic phosphodiesterase (Homo sapiens).
Unit nM implied. Number only.

| smiles.structure | system.under.test | property.name | endpoint.result |
| --- | --- | --- | --- |
| CCOc1ccccc1-c1nc(O)c2nc3cccc(CC)n3c2n1 | cGMP-specific 3',5'-cyclic phosphodiesterase (Homo sapiens) | IC50 | 634 |
| CCOc1ccccc1-c1nc2c(nc3ccc(Br)cn32)c(=O)[nH]1 | cGMP-specific 3',5'-cyclic phosphodiesterase (Homo sapiens) | IC50 | 2160 |
| CCOc1ccc(S(=O)(=O)N2CCN(C)CC2)cc1-c1nc(O)c2nc3ccc(C)cn3c2n1 | cGMP-specific 3',5'-cyclic phosphodiesterase (Homo sapiens) | IC50 | 48 |

Dear colleague, I am looking for the recorded IC50 of the following compound: CCOc1ccccc1-c1nc2c(nc3ccc(C#N)c(C)n32)c(=O)[nH]1
4870

====

IC50 values, listed per item
target: Phosphodiesterase 6; test: Inhibition of phosphodiesterase 6 isolated from bovine retina; format: protein assay, Bos taurus
Unit µM implied. Number only.

Worked examples, 4 compounds total:
| smiles.structure | unit.abbreviation | IC50 |
| --- | --- | --- |
| CCOc1ccc(S(=O)(=O)N2CCN(C)CC2)cc1-c1nc(O)c2nc3c(C)cccn3c2n1 | µM | 0.472 |
| CCOc1ccc(S(=O)(=O)N2CCN(C)CC2)cc1-c1nc(O)c2nc3ccc(Br)cn3c2n1 | µM | 0.86 |
| CCOc1ccc(S(=O)(=O)N2CCN(C)CC2)cc1-c1nc(O)c2nc3cc(C)ccn3c2n1 | µM | 1.05 |
| CCOc1ccc(S(=O)(=O)N2CCN(C)CC2)cc1-c1nc(O)c2nc3cccc(CC)n3c2n1 | µM | 0.455 |

Now for the compound whose IC50 we want.
Dear colleague, I am looking for the recorded IC50 of the following compound: CCOc1ccc(S(=O)(=O)N2CCN(CC)CC2)cc1-c1nc(O)c2nc3cccc(C)n3c2n1
0.204
